Recorded values, source paper PMC11946194.

Biological target: HIV-1 RT-associated RNase H (Human immunodeficiency virus type 1 group M subtype B, UniProt P04585)
Construct: quantification of RNase H activity of reverse transcriptase (RT) enzyme
Experiment: RT RNase H polymerase-independent cleavage assay
Type: biochemical
pIC50: −log10 of the molar value.
// pIC50 lookup, one value per entry

Reference set (3 entries):
For the molecule shown here, O=C1CSC(c2ccc(F)cc2)N1c1nc(-c2cccc(S(=O)(=O)N3CCCC3)c2)cs1 (stereo not shown) [Compound 2] , give the reported pIC50.
< 4.30

For the molecule shown here, O=C1CSC(c2c(F)cccc2F)N1c1nc(-c2ccc(F)cc2)cs1 (stereo not shown) [Compound 12] , give the reported pIC50.
< 4.30

For the molecule shown here, O=C1CSC(c2c(F)cccc2F)N1c1nc(-c2cccc(S(=O)(=O)N3CCCC3)c2)cs1 (stereo not shown) [Compound 3] , give the reported pIC50.
< 4.30

Now for a further molecule.
For the molecule shown here, O=C1CSC(c2c(F)cccc2Cl)N1c1nc2ccc(C(F)(F)F)cc2s1 (stereo not shown) [Compound 11] , give the reported pIC50.
4.60

---

Biological target: recombinant HIV-1 RT (Human immunodeficiency virus type 1 group M subtype B)
Construct: recombinant HIV-1 RT; purchased Roche
Test: HIV-1 RT RDDP inhibitory activity (Roche colorimetric immunoassay kit)
Assay type: biochemical
ASSAY_READOUT: inhibition at 4 µM (%)
Provide the reading as a plain figure in %.

For the compound shown here, O=C1CSC(c2c(F)cccc2F)N1c1nc(-c2ccc(S(=O)(=O)N3CCOCC3)cc2)cs1 (stereo not shown) , give the reported inhibition at 4 µM.
33

For the compound shown here, O=C1CSC(c2ccccc2O)N1c1nc(-c2cccc(S(=O)(=O)N3CCCC3)c2)cs1 (stereo not shown) , give the reported inhibition at 4 µM.
45.2

For the compound shown here, O=C1CSC(c2c(Cl)cccc2Cl)N1c1nc(-c2ccc(S(=O)(=O)N3CCOCC3)cc2)cs1 (stereo not shown) , give the reported inhibition at 4 µM.
2.48

For the compound shown here, COc1ccc(OC)c(C2SCC(=O)N2c2nc(-c3ccc(S(=O)(=O)N4CCOCC4)cc3)cs2)c1 (stereo not shown) , give the reported inhibition at 4 µM.
81.3

For the compound shown here, O=C1CSC(c2ccc(F)cc2)N1c1cccc(S(=O)(=O)Nc2nccs2)c1 (stereo not shown) , give the reported inhibition at 4 µM.
68.3

For the compound shown here, O=C1CSC(c2ccc(F)cc2)N1c1nc(-c2ccc(S(=O)(=O)N3CCOCC3)cc2)cs1 (stereo not shown) , give the reported inhibition at 4 µM.
12

For the compound shown here, COc1ccc(OC)c(C2SCC(=O)N2c2nc(-c3cccc(S(=O)(=O)N4CCCC4)c3)cs2)c1 (stereo not shown) , give the reported inhibition at 4 µM.
86.6

For the compound shown here, O=C1CSC(c2ccc(F)cc2)N1c1nc(-c2cccc(S(=O)(=O)N3CCCC3)c2)cs1 (stereo not shown) , give the reported inhibition at 4 µM.
8.36

For the compound shown here, O=C1CSC(c2c(F)cccc2F)N1c1nc(-c2ccc(F)cc2)cs1 (stereo not shown) , give the reported inhibition at 4 µM.
5.86

For the compound shown here, O=C1CSC(c2c(Cl)cccc2Cl)N1c1nc(-c2ccc(F)cc2)cs1 (stereo not shown) , give the reported inhibition at 4 µM.
1.59

For the compound shown here, N#Cc1ccc2nc(N3C(=O)CSC3c3c(F)cccc3F)sc2c1 (stereo not shown) , give the reported inhibition at 4 µM.
21.4

For the compound shown here, O=C1CSC(c2c(Cl)cccc2Cl)N1c1nc2ccc(C(F)(F)F)cc2s1 (stereo not shown) , give the reported inhibition at 4 µM.
8.52

For the compound shown here, O=C1CSC(c2c(F)cccc2F)N1c1nc(-c2cccc(S(=O)(=O)N3CCCC3)c2)cs1 (stereo not shown) , give the reported inhibition at 4 µM.
24.3

For the compound shown here, O=C1CSC(c2c(F)cccc2Cl)N1c1nc2ccc(C(F)(F)F)cc2s1 (stereo not shown) , give the reported inhibition at 4 µM.
92.4

For the compound shown here, O=C1CSC(c2c(F)cccc2F)N1c1nc2cc(-c3ccccc3)c(-c3ccccc3)cc2s1 (stereo not shown) , give the reported inhibition at 4 µM.
7.9

For the compound shown here, Cc1ccnc2c1NC(=O)c1cccnc1N2C1CC1 [Nevirapine, reference compound] , give the reported inhibition at 4 µM.
93.8
